- Test system: healthy participants
- assay: Phase 1 Part A single ascending dose (SAD) and FE/pH cohort: safety, blood pressure
- Type: in vivo, human
- conditions.used: 100 mg Fasted + Famotidine, D 1 4 h
measured.parameter: Mean DBP (mmHg)

>>> print(df.to_string())
                               given_smiles  measured_parameter  observed_result
0  CCCN(C)C(=O)OCc1c(-c2ccc(O[C@H]3CCC[C@H](C(=O)O)C3)c(C)n2)nnn1C            Mean DBP             65.3

Values from patent US20240216352A1
